Tested on: SK-OV-3
Experiment: NCI-60 one-dose screen (ovarian cancer)
Type: cell-based, human
Details: 10 µM single dose, 48 h
Output Yes for GP (growth percentage) not less than 90%; output No otherwise.

Answered examples (2):
- smiles_str: "COc1cc(NC2=C(Cl)C(=O)c3nc(C)ccc3C2=O)cc(OC)c1"
  assayed_system: "SK-OV-3"
  assigned_label: "Yes"
- smiles_str: "CCOc1ccccc1NC1=C(Cl)C(=O)c2nc(C)ccc2C1=O"
  assayed_system: "SK-OV-3"
  assigned_label: "No"

Given CCOc1ccc(NC2=C(Cl)C(=O)c3nc(C)ccc3C2=O)cc1 , state whether its GP (growth percentage) is at least 90%.
No

###

Tested on: NCI-H522
Assay: NCI-60 five-dose assay (non-small cell lung cancer)
Format: cell-based, human
Conditions: 48 h, SRB
measured_parameter: TGI (µM)
Numbers only, in µM.

For every record below, what is its TGI?
1. CCOc1ccc(NC2=C(Cl)C(=O)c3nc(C)ccc3C2=O)cc1
2. CCOc1ccccc1NC1=C(Cl)C(=O)c2nc(C)ccc2C1=O
3. COc1ccccc1NC1=C(Cl)C(=O)c2nc(C)ccc2C1=O
4. COc1cc(NC2=C(Cl)C(=O)c3nc(C)ccc3C2=O)cc(OC)c1

[3.22, 3.28, 3.36, 3.06]

###

System: OVCAR-5
Experiment: NCI-60 five-dose assay (ovarian cancer)
Type: cell-based, human
Settings: Homo sapiens, 48 h, SRB
measured_parameter: LC50 (lethal concentration 50%) (µM)
Answers are plain numbers, in µM.

Use these answered entries as a reference point.
- smiles_str: "CCOc1ccc(NC2=C(Cl)C(=O)c3nc(C)ccc3C2=O)cc1"
  measured_parameter: "LC50 (lethal concentration 50%)"
  unit_info: "µM"
  value_observed: 6.25
- smiles_str: "COc1cc(NC2=C(Cl)C(=O)c3nc(C)ccc3C2=O)cc(OC)c1"
  measured_parameter: "LC50 (lethal concentration 50%)"
  unit_info: "µM"
  value_observed: 23.7
- smiles_str: "CCOc1ccccc1NC1=C(Cl)C(=O)c2nc(C)ccc2C1=O"
  measured_parameter: "LC50 (lethal concentration 50%)"
  unit_info: "µM"
  value_observed: 6.03

Item: COc1ccccc1NC1=C(Cl)C(=O)c2nc(C)ccc2C1=O | LC50 (lethal concentration 50%): 6.29

###

Test system: SF-268
measured_parameter: GI50 (µM)
Give bare numbers, in µM.

- smiles_str: "CCOc1ccccc1NC1=C(Cl)C(=O)c2nc(C)ccc2C1=O"
  value_observed: 1.47

For every record below, what is its GI50?
1. CCOc1ccc(NC2=C(Cl)C(=O)c3nc(C)ccc3C2=O)cc1
2. COc1cc(NC2=C(Cl)C(=O)c3nc(C)ccc3C2=O)cc(OC)c1
3. COc1ccccc1NC1=C(Cl)C(=O)c2nc(C)ccc2C1=O

1: 1.55; 2: 3.25; 3: 1.53

###

Consider the following compounds; for each one, report its LC50 (50% lethal concentration).
Test system: HOP-92
Test: NCI-60 five-dose assay (non-small cell lung cancer)
Assay type: cell-based, human
Details: Homo sapiens, 48 h, SRB
Numbers only, in µM.

- smiles_str: "CCOc1ccc(NC2=C(Cl)C(=O)c3nc(C)ccc3C2=O)cc1"
  assayed_system: "HOP-92"
  value_observed: 6.12

For every record below, what is its LC50 (50% lethal concentration)?
1. CCOc1ccccc1NC1=C(Cl)C(=O)c2nc(C)ccc2C1=O
2. COc1ccccc1NC1=C(Cl)C(=O)c2nc(C)ccc2C1=O
3. COc1cc(NC2=C(Cl)C(=O)c3nc(C)ccc3C2=O)cc(OC)c1

1: 6.13; 2: 5.91; 3: 5.83

###

Test: In vivo bioavailability / pharmacokinetic study IV and PO
Design: species or system male Sprague-Dawley rats
Settings: male, Sprague-Dawley, whole blood; rat; PO 5 mg/kg
Consider the following molecules; for each one, report its Cmax.
One number for each entry, in ng/mL.

- smiles_str: "COc1ccccc1NC1=C(Cl)C(=O)c2nc(C)ccc2C1=O"
  unit_info: "ng/mL"
  value_observed: 435

From here, focus on the item given below.
Item: CCOc1ccccc1NC1=C(Cl)C(=O)c2nc(C)ccc2C1=O | Cmax: 282

###

Test system: 786-0
Experiment: NCI-60 five-dose assay (renal cancer)
Assay type: cell-based, human
Conditions: 48 h, SRB
measured_parameter: TGI (µM)
One number for each entry, in µM.

Use these answered entries as a reference point.
- smiles_str: "CCOc1ccccc1NC1=C(Cl)C(=O)c2nc(C)ccc2C1=O"
  assayed_system: "786-0"
  TGI, µM: 3.25
- smiles_str: "CCOc1ccc(NC2=C(Cl)C(=O)c3nc(C)ccc3C2=O)cc1"
  assayed_system: "786-0"
  TGI, µM: 3.19
- smiles_str: "COc1cc(NC2=C(Cl)C(=O)c3nc(C)ccc3C2=O)cc(OC)c1"
  assayed_system: "786-0"
  TGI, µM: 2.88

From here, focus on the item given below.
// TGI (786-0) for COc1ccccc1NC1=C(Cl)C(=O)c2nc(C)ccc2C1=O = 3.61

###

Tested on: SNB-75
Assay: NCI-60 five-dose assay (CNS cancer)
Assay type: cell-based, human
Conditions: Homo sapiens, 48 h, SRB
Consider the following compounds; for each one, report its LC50 (50% lethal concentration).
One number for each entry, in µM.

Use these answered entries as a reference point.
- smiles_str: "COc1cc(NC2=C(Cl)C(=O)c3nc(C)ccc3C2=O)cc(OC)c1"
  assayed_system: "SNB-75"
  unit_info: "µM"
  LC50 (50% lethal concentration): 23.2
- smiles_str: "COc1ccccc1NC1=C(Cl)C(=O)c2nc(C)ccc2C1=O"
  assayed_system: "SNB-75"
  unit_info: "µM"
  LC50 (50% lethal concentration): 5.39
- smiles_str: "CCOc1ccc(NC2=C(Cl)C(=O)c3nc(C)ccc3C2=O)cc1"
  assayed_system: "SNB-75"
  unit_info: "µM"
  LC50 (50% lethal concentration): 5.33

From here, focus on the item given below.
// LC50 (50% lethal concentration) (SNB-75) for CCOc1ccccc1NC1=C(Cl)C(=O)c2nc(C)ccc2C1=O = 7.21

###

Consider the following compounds; for each one, report its LC50 (concentration killing 50% of starting cells).
System: SN12C
Assay: NCI-60 five-dose assay (renal cancer)
Format: cell-based, human
Settings: Homo sapiens, 48 h, SRB
One number for each entry, in µM.

- compound: "COc1cc(NC2=C(Cl)C(=O)c3nc(C)ccc3C2=O)cc(OC)c1 [AQQ5]"
  value_observed: 6.19
- compound: "CCOc1ccc(NC2=C(Cl)C(=O)c3nc(C)ccc3C2=O)cc1 [AQQ3]"
  value_observed: 5.66
- compound: "COc1ccccc1NC1=C(Cl)C(=O)c2nc(C)ccc2C1=O [AQQ1]"
  value_observed: 6.36

From here, focus on the item given below.
Item: CCOc1ccccc1NC1=C(Cl)C(=O)c2nc(C)ccc2C1=O [AQQ2] | LC50 (concentration killing 50% of starting cells): 5.8

###

Test system: OVCAR-4
Test: NCI-60 five-dose assay (ovarian cancer)
Assay type: cell-based, human
Conditions: 48 h, SRB
measured_parameter: TGI
Answer with the value and then the unit.

Use these answered entries as a reference point.
- compound: "COc1ccccc1NC1=C(Cl)C(=O)c2nc(C)ccc2C1=O [AQQ1]"
  assayed_system: "OVCAR-4"
  TGI: "2490 nM"
- compound: "CCOc1ccc(NC2=C(Cl)C(=O)c3nc(C)ccc3C2=O)cc1 [AQQ3]"
  assayed_system: "OVCAR-4"
  TGI: "2370 nM"
- compound: "COc1cc(NC2=C(Cl)C(=O)c3nc(C)ccc3C2=O)cc(OC)c1 [AQQ5]"
  assayed_system: "OVCAR-4"
  TGI: "2820 nM"

From here, focus on the item given below.
Item: CCOc1ccccc1NC1=C(Cl)C(=O)c2nc(C)ccc2C1=O [AQQ2] | TGI: 2220 nM

###

Tested on: MALME-3M
Assay: NCI-60 five-dose assay (melanoma)
Format: cell-based, human
Settings: Homo sapiens, 48 h, SRB
Consider the following compounds; for each one, report its LC50.
Give bare numbers, in µM.

Use these answered entries as a reference point.
- compound: "COc1cc(NC2=C(Cl)C(=O)c3nc(C)ccc3C2=O)cc(OC)c1 [AQQ5]"
  LC50 / µM: 6.11
- compound: "CCOc1ccccc1NC1=C(Cl)C(=O)c2nc(C)ccc2C1=O [AQQ2]"
  LC50 / µM: 5.64

For every record below, what is its LC50?
1. CCOc1ccc(NC2=C(Cl)C(=O)c3nc(C)ccc3C2=O)cc1 [AQQ3]
2. COc1ccccc1NC1=C(Cl)C(=O)c2nc(C)ccc2C1=O [AQQ1]

6.02
5.95

###

Consider the following compounds; for each one, report its LC50 (lethal concentration 50%).
System: UO-31
Assay: NCI-60 five-dose assay (renal cancer)
Format: cell-based, human
Conditions: Homo sapiens, 48 h, SRB

- compound: "COc1ccccc1NC1=C(Cl)C(=O)c2nc(C)ccc2C1=O [AQQ1]"
  LC50 (lethal concentration 50%): "5.26 µM"

For every record below, what is its LC50 (lethal concentration 50%)?
1. CCOc1ccc(NC2=C(Cl)C(=O)c3nc(C)ccc3C2=O)cc1 [AQQ3]
2. COc1cc(NC2=C(Cl)C(=O)c3nc(C)ccc3C2=O)cc(OC)c1 [AQQ5]
3. CCOc1ccccc1NC1=C(Cl)C(=O)c2nc(C)ccc2C1=O [AQQ2]

5.28 µM
5.53 µM
5.23 µM
